Test system: pS6 MDA-MB-468
Test: Cellular Activity Assay (phospho-S6 in MDA-MB-468 cells)
Assay type: cell-based
Details: Homo sapiens, 2 hr compound incubation, percent pS6-positive cells
pIC50: −log10 of the molar value.
Respond with met for pIC50 values of 7 and above, not met for values below.

Hi team, for `NC(=O)c1cccc2c(N[C@H](CN3CCC3)c3cccc(Cl)c3)ncnc12` , is the recorded pIC50 at or above 7?
met

Try this compound too: `NC(=O)c1ccc([C@@H](CN2CCC2)Nc2ncnc3c(C(N)=O)cccc23)cc1`
not met

Try this compound too: `NC(=O)c1cccc2c(N[C@H](CN3CCC3)c3ccc(F)c(C(F)(F)F)c3)ncnc12`
met

Try this compound too: `NC(=O)c1cccc2c(N[C@H](CN3CCC3)c3ccc(Cl)cc3)ncnc12`
met

====

Biological target: P70S6K (T412E mutant) (Homo sapiens, UniProt P23443, T412E)
Sequence (P23443 1-421 T412E limits assumed): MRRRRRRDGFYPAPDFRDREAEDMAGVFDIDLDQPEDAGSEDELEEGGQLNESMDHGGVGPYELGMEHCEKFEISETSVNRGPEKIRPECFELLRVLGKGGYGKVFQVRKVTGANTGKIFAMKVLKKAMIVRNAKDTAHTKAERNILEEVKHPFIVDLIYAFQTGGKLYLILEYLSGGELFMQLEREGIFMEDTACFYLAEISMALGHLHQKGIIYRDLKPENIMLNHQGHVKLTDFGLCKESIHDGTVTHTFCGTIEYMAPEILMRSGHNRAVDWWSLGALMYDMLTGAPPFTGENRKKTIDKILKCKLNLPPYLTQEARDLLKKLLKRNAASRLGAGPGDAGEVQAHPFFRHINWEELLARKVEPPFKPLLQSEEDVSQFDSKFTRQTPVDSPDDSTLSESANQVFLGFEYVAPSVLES
Assay: p70S6K Enzyme Assay
Settings: 24 μM ATP, 90 min at 25° C., Caliper mobility shift
Provide the reported IC50 of each item.
Report the figure in nM without appending any unit label.

Query (molecule): NC(=O)c1cccc2c(N[C@H](CN3CC(F)C3)c3cccc(Cl)c3)ncnc12 [Example 22] ; field requested: IC50
2.4

Try this molecule too: CC1CCN1C[C@@H](Nc1ncnc2c(C(N)=O)cccc12)c1ccc(F)c(C(F)(F)F)c1 (stereo partly drawn) [Example 48]
3

Try this molecule too: COc1cc([C@@H](CN2CCC2)Nc2ncnc3c(C(N)=O)cccc23)ccc1F [Example 43]
4

====

Test system: pS6 MDA-MB-468
Assay: Cellular Activity Assay (phospho-S6 in MDA-MB-468 cells)
Format: cell-based
Conditions: Homo sapiens, 2 hr compound incubation, percent pS6-positive cells
measured-property: pIC50
In plain terms, pIC50 is the concentration in mol/L turned into minus its base-10 logarithm.

Query (molecule): NC(=O)c1cccc2c(N[C@H](CN3CCC3)c3ccc(Cl)cc3F)ncnc12 [Example 14] ; field requested: pIC50
7.07

Try this molecule too: NC(=O)c1cccc2c(N[C@H](CN3CCC3)c3ccc(F)cc3)ncnc12 [Example 3]
6.99

Try this molecule too: NC(=O)c1cccc2c(N[C@H](CN3CCC3)c3cccc(F)c3)ncnc12 [Example 1]
7.15

Try this molecule too: NC(=O)c1cccc2c(N[C@H](CN3CCC3)c3ccc(F)cc3F)ncnc12 [Example 15]
6.84

Try this molecule too: CC(C)c1ccc([C@@H](CN2CCC2)Nc2ncnc3c(C(N)=O)cccc23)cc1 [Example 34]
7.20

Try this molecule too: COc1cccc([C@@H](CN2CCC2)Nc2ncnc3c(C(N)=O)cccc23)c1 [Example 12]
6.69

Try this molecule too: NC(=O)c1cccc2c(N[C@H](CN3CCC3)c3ccc(F)c(C(F)F)c3)ncnc12 [Example 44]
7.39

Try this molecule too: N#Cc1ccc([C@@H](CN2CCC2)Nc2ncnc3c(C(N)=O)cccc23)cc1 [Example 23]
7.54

Try this molecule too: NC(=O)c1cccc2c(N[C@H](CN3CCC3)c3c(F)cccc3F)ncnc12 [Example 16]
6.74

Try this molecule too: NC(=O)c1cccc2c(N[C@H](CN3CCC3)c3cc(F)c(F)c(F)c3)ncnc12 [Example 37]
6.89

Try this molecule too: COc1cc(C(N)=O)c2ncnc(N[C@H](CN3CCC3)c3ccc(F)c(C(F)(F)F)c3)c2c1 [Example 47]
7.57

Try this molecule too: NC(=O)c1cccc2c(N[C@H](CN3CC(F)C3)c3ccc(F)c(C(F)(F)F)c3)ncnc12 [Example 49]
6.94

Try this molecule too: NC(=O)c1cccc2c(N[C@H](CN3CCC3)c3cc(F)c(F)cc3F)ncnc12 [Example 18]
7.07

Try this molecule too: NC(=O)c1cc(F)cc2c(N[C@H](CN3CCC3)c3ccc(Cl)c(F)c3)ncnc12 [Example 51]
7.19

Try this molecule too: COc1c(F)cc([C@@H](CN2CCC2)Nc2ncnc3c(C(N)=O)cccc23)cc1F [Example 38]
6.95

Try this molecule too: NC(=O)c1cccc2c(N[C@H](CN3CC(F)C3)c3cccc(Cl)c3)ncnc12 [Example 22]
6.49

Try this molecule too: NC(=O)c1cccc2c(N[C@H](CN3CCC3)c3cc(F)ccc3F)ncnc12 [Example 26]
6.44

Try this molecule too: NC(=O)c1cccc2c(N[C@H](CN3CCC3)c3ccc(Br)cc3)ncnc12 [Example 8]
7.41

Try this molecule too: NC(=O)c1cccc2c(N[C@H](CN3CCC3)c3ccc(C(F)(F)F)cc3)ncnc12 [Example 9]
8.00

Try this molecule too: NC(=O)c1cccc2c(N[C@H](CN3CCC3)c3ccc(Cl)c(F)c3)ncnc12 [Example 29]
7.72

Try this molecule too: NC(=O)c1cccc2c(N[C@H](CN3CCC3)c3cc(F)cc(C(F)(F)F)c3)ncnc12 [Example 6]
7.01

Try this molecule too: N#Cc1cc([C@@H](CN2CCC2)Nc2ncnc3c(C(N)=O)cccc23)ccc1F [Example 39]
6.61

Try this molecule too: Cc1cc([C@@H](CN2CCC2)Nc2ncnc3c(C(N)=O)cccc23)ccc1F [Example 42]
7.49

Try this molecule too: COc1cc([C@@H](CN2CCC2)Nc2ncnc3c(C(N)=O)cccc23)ccc1F [Example 43]
6.32

Try this molecule too: NC(=O)c1cccc2c(N[C@H](CN3CCC3)c3ccc(F)c(Cl)c3)ncnc12 [Example 7]
8.89

====

As a worked illustration, we turn to IC50 data collected for UniProt:Q96GD4.
Sequence (Q96GD4 whole entry): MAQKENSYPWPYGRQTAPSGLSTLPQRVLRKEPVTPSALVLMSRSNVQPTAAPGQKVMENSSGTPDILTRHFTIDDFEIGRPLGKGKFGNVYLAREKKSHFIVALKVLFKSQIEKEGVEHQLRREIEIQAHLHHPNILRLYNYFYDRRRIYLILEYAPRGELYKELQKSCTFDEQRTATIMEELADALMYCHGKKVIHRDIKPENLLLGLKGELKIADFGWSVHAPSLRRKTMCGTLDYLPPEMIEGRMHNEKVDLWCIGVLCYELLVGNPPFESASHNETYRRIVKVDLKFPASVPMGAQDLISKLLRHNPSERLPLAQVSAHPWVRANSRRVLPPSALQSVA
Sequence (Q9NQS7 803-918 partner limits assumed): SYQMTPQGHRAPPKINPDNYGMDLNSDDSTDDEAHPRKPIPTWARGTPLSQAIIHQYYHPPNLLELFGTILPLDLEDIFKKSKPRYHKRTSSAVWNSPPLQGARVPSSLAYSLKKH
Report the figure in nM without appending any unit label.

Query (compound): `NC(=O)c1cccc2c(N[C@H](CN3CCC3)c3ccc(Cl)cc3)ncnc12` ; field requested: IC50
43

Try this compound too: `NC(=O)c1cccc2c(N[C@H](CN3CCC3)c3ccc(F)c(C(F)F)c3)ncnc12`
75

Try this compound too: `NC(=O)c1cccc2c(N[C@H](CN3CCC3)c3ccc4c(c3)OCO4)ncnc12`
300

Try this compound too: `NC(=O)c1cccc2c(N[C@H](CN3CCC3)c3ccc(F)c(Cl)c3)ncnc12`
58

Try this compound too: `NC(=O)c1cccc2c(N[C@H](CN3CCC3)c3ccc(C(F)(F)F)c(Cl)c3)ncnc12`
130

Try this compound too: `NC(=O)c1cccc2c(N[C@H](CN3CCC3)c3ccc(F)c(F)c3F)ncnc12`
360

Try this compound too: `CC1CN(C[C@@H](Nc2ncnc3c(C(N)=O)cccc23)c2ccc(F)c(C(F)(F)F)c2)C1`
390

Try this compound too: `N#Cc1ccc([C@@H](CN2CCC2)Nc2ncnc3c(C(N)=O)cccc23)cc1`
150

Try this compound too: `NC(=O)c1cccc2c(N[C@H](CN3CCC3)c3cc(F)c(F)c(F)c3)ncnc12`
200

Try this compound too: `NC(=O)c1cccc2c(N[C@H](CN3CCC3)c3ccc(F)c(F)c3)ncnc12`
56
